The following compounds are listed with their measured Percent Control values.
# Test system: MAP4K4;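 note: KINOMEscan scanMAX binding as percent activity remaining versus control; lower means stronger binding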
# Condition Context: Compound Concentration (nM):1000

- Compound: "CC1=C(C(=O)Nc2ccc3[nH]ncc3c2)C(c2ccc(Cl)c(Cl)c2)CC(=O)N1 (stereo not shown) [GSK299115A]"
  Unit Of Measure: "%"
  Percent Control: 73
- Compound: "CN1CCN(C(=O)c2ccc(NC(=O)Nc3ccc(N(C)c4ccnc(Nc5ccc(CS(C)(=O)=O)cc5)n4)cc3)cc2)CC1.Cl [GW830263A]"
  Unit Of Measure: "%"
  Percent Control: 33
- Compound: "NS(=O)(=O)c1ccc(N/N=C2\\C(=O)Nc3ccc(-c4cnco4)cc32)cc1 [GW276655]"
  Unit Of Measure: "%"
  Percent Control: 62
- Compound: "COc1ccccc1-c1cc(/C=C2\\C(=O)Nc3ncc(Br)cc32)cc(Br)c1O [GW442130X]"
  Unit Of Measure: "%"
  Percent Control: 96

Origin of values: paper PMC7826789
